B1: DLC1 (parent)
chain: AEVVKIRDSFSNQNTETKDTKSR

variants of: B1; assay: protein stability index of a GFP-peptide fusion (GPS, HEK-293T) (PSI 1-6); higher = more stable; conditions: c terminus: native;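 note: lentivirally expressed fusions sorted by FACS into six bins by GFP to DsRed ratio, PSI derived from sequencing read proportions per bin multiplied by bin number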
quantityKind: protein stability index

var: D8A
quantityKind: protein stability index
observedMeasurement: 2.53

var: K18F
quantityKind: protein stability index
observedMeasurement: 2.59

var: F10Q
quantityKind: protein stability index
observedMeasurement: 3.46

var: N12E
quantityKind: protein stability index
observedMeasurement: 2.71

var: D19I
quantityKind: protein stability index
observedMeasurement: 2.29

var: Q13P
quantityKind: protein stability index
observedMeasurement: 2.4

var: T17G
quantityKind: protein stability index
observedMeasurement: 4.08
